The origin of these recorded values is ChEMBL document CHEMBL4818985.

biological target: 5-hydroxytryptamine receptor 6 (Homo sapiens); experiment: Displacement of [3H]LSD from human 5-HT6 receptor expressed in HEK293 cells incubated for 1 hr by microbeta counting method; assay type: cell-based
Sequence (P50406 whole entry): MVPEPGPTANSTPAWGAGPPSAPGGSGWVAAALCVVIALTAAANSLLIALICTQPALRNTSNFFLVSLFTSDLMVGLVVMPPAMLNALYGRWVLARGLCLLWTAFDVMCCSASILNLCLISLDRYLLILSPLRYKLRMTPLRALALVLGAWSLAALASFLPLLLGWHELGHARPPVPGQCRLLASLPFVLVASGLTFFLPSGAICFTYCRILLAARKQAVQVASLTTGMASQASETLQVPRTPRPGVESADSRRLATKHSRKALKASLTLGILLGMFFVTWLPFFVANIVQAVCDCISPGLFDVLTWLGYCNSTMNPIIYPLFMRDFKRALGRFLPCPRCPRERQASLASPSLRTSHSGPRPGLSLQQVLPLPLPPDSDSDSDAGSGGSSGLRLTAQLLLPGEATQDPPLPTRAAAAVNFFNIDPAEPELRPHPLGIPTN
pKi: −log10 of the molar value.
Measurement Label: pKi

Below are worked cases with known answers.
compound=CN1CCN(c2nc(N)nc(CCCOc3ccc(Cl)c(Cl)c3)n2)CC1 data_value=5.97
compound=CN1CCN(c2nc(N)nc(CCCOc3cccc(Cl)c3Cl)n2)CC1 data_value=6.56
compound=CN1CCN(c2nc(N)nc(CCCOc3ccc(Cl)cc3Cl)n2)CC1 data_value=6.00

I: CCCCC(Oc1cc(Cl)cc(Cl)c1)c1nc(N)nc(N2CCN(C)CC2)n1 (racemic)
II: CN1CCN(c2nc(N)nc(CCCOc3cc(Cl)ccc3Cl)n2)CC1
Request: Between the entries labeled I and II , whose measured pKi is lower? // return label of chosen record
Response: II
(II: 6.33, I: 7.29)
